system: CAKI-1 renal; assay: NCI-60 one-dose screen, 48 h; conditions: 10 µM
This is part of a sample that, as a whole, favours compounds with a hit. Of some 83,000 tested, about 20% had one in any assay. Activity calls are given as the source filed them. The calls were made as follows: active = growth percent below 10; inactive = the rest.
One label from this list, please: active, inactive

Exercise: Test call, this molecule: Cc1nn(-c2ccccc2)cc1/C=N/Nc1nc(Nc2ccccc2)nc(Nc2ccc(S(N)(=O)=O)cc2)n1
Solution: active

Exercise: Test call, this molecule: Cn1cc(-c2nn3cc(-c4cccnc4)nc3s2)c2ccccc21
Solution: inactive

Exercise: Test call, this molecule: Cc1ccc(-c2csc(N/N=C/c3nc4ccccc4n3C3CC3)n2)cc1
Solution: inactive

Exercise: Test call, this molecule: O=C1NC(=O)c2c1c1c3ccccc3ccc1c1[nH]c3ccccc3c21
Solution: active

Exercise: Test call, this molecule: Nc1nc(N)c2c(n1)NC(c1ccc(Cl)cc1)CC(c1ccc(Nc3nc(NCCO)nc(Nc4ccc(Cl)cc4)n3)cc1)=N2 (stereo not given)
Solution: inactive

* * *

test system: SW-620 colon; assay: NCI-60 one-dose screen, 48 h; details: 10 µM unless noted
Compounds without any hit were thinned out: in the full panel of roughly 83,000, 20% have a hit. Activity calls are given as the source filed them. How the source made its calls: active means growth percent below 10; inactive means the rest.
One label from this list, please: active, inactive

Exercise: Test call, this compound: CC1(COc2ccc3ncc(C#Cc4cncc(C(=O)Nc5cc(C(C)(C)C)on5)c4)n3n2)COC1
Solution: inactive

Exercise: Test call, this compound: CS(=O)(=O)c1ccc2c(c1)c1c(n2Cc2ccc(Cl)cc2)CCCC1
Solution: inactive

Exercise: Test call, this compound: Nc1nc(N)c2c(n1)NC(c1ccc(Cl)cc1)CC(c1ccc(Nc3nc(NCCO)nc(Nc4ccc(Cl)cc4)n3)cc1)=N2 (configuration not stated)
Solution: active

Exercise: Test call, this compound: CC(C)(C)CC(C)(C)n1nnnc1C(Nc1ccccc1)c1cc2cccc3ccc4cccc1c4c32 (configuration not stated)
Solution: inactive

Exercise: Test call, this compound: COc1cc(O)c2c(c1)[C@H]1O[C@@H]1C[C@H](O)[C@H](O)C(=O)/C=C\C[C@H](C)OC2=O
Solution: inactive

Exercise: Test call, this compound: Oc1ccc(CSc2nnc(-c3ccc(Br)cc3)n2-c2ccccc2)c2cccnc12
Solution: inactive

Exercise: Test call, this compound: NNC(=O)c1sc2nc(-c3cnccn3)cc(-c3cccs3)c2c1N
Solution: inactive

Exercise: Test call, this compound: O=C(NCCCCCCNC(=O)c1c2c(nc3ccccc13)-c1cccnc1SC2)c1c2c(nc3ccccc13)-c1cccnc1SC2
Solution: inactive

Exercise: Test call, this compound: COc1ccc(OC)c([C@H]2c3[nH]c4ccccc4c3C[C@H]3C(=O)N(CCCCCCC(=O)NO)CC(=O)N23)c1
Solution: inactive

Exercise: Test call, this compound: O=C1NC(=O)/C(=C/c2ccc(OCc3cc4ccccc4nc3Cl)cc2)S1
Solution: inactive

Exercise: Test call, this compound: CC[C@@](C)(NC(=O)C(C)(C)NC(=O)[C@@H](NC(=O)[C@@H]1CCCN1C(=O)C(C)(C)NC(=O)[C@H](CC(C)C)NC(=O)CNC(=O)C(C)(C)NC(=O)[C@@H](NC(=O)C(C)(C)NC(=O)[C@H](CCC(N)=O)NC(=O)[C@H](C)NC(=O)C(C)(C)NC(=O)[C@H](C)NC(=O)C(C)(C)NC(=O)[C@H](C)NC(=O)C(C)(C)NC(C)=O)C(C)C)C(C)C)C(=O)N[C@@H](CCC(N)=O)C(=O)N[C@@H](CCC(N)=O)C(=O)N[C@H](CO)CC1CCCCC1
Solution: inactive

Exercise: Test call, this compound: Cc1csc(Nc2cccc(Nc3nc(C)cs3)c2)n1
Solution: inactive

Exercise: Test call, this compound: O=C(O)CNS(=O)(=O)c1ccc(Oc2ccc(S(=O)(=O)NCC(=O)O)cc2)cc1
Solution: inactive

Exercise: Test call, this compound: O=C(NNc1nc2cc(F)ccc2n2cncc12)c1cnccn1
Solution: inactive

Exercise: Test call, this compound: CNC(=O)c1cc(Oc2ccc3nc(NC(=O)c4cc(C)cc(C)c4)sc3c2)ccn1
Solution: inactive

Exercise: Test call, this compound: CN1CCN(c2ccc(NC(=O)Nc3ccc4c(ccn4-c4cccc(C(N)=O)n4)c3)cc2C(F)(F)F)CC1
Solution: active

Exercise: Test call, this compound: O=C1[C@@H]2Cc3c([nH]c4ccccc34)[C@H](c3c(Cl)cccc3Cl)N2C(=O)CN1C1CCN(Cc2ccccc2)CC1
Solution: inactive

* * *

test system: MDA-MB-435 melanoma; assay: NCI-60 one-dose screen, 48 h (100 = growth as untreated, 0 = no growth, -100 = all killed); settings: 10 µM unless noted
This is part of a sample that, as a whole, favours compounds with a hit. Of some 83,000 tested, about 20% had one in any assay.
Please go through the items and note down their growth.
Please respond with the number in % and leave the unit unwritten.

For Fc1ccc(-c2cc3nc(C(Cl)Cl)nc(-c4cccs4)n3n2)cc1 on MDA-MB-435 melanoma, measured growth was 14.3

For NS(=O)(=O)c1ccc(-n2cc(CC=O)nn2)cc1 on MDA-MB-435 melanoma, measured growth was 102

For C=CCn1c(SCC(=O)Nc2cccc(C(=O)/C=C/c3ccc(Br)cc3)c2)nc2ccccc2c1=O on MDA-MB-435 melanoma, measured growth was 86.9

For Cc1ccc(NC(=O)c2ccc(CN3CCN(C)CC3)c(C(F)(F)F)c2)cc1Oc1ccc(-c2[nH]nc3ncnc(N)c23)cc1 on MDA-MB-435 melanoma, measured growth was 71.5

For O=C(NNc1nc2cc(F)ccc2n2cncc12)c1cnccn1 on MDA-MB-435 melanoma, measured growth was 25

For CS(=O)c1nccc(-c2c(-c3ccc(F)c(OCCc4ccccc4)c3)nc3sccn23)n1 (centres undefined) on MDA-MB-435 melanoma, measured growth was 111

For O=C(O)c1ccc(-n2cc(CNc3ccc(F)cc3)c(-c3ccc(C(F)(F)F)cc3)n2)cc1 on MDA-MB-435 melanoma, measured growth was 80.9

For O=C1[C@H]2Cc3c([nH]c4ccccc34)[C@H](c3ccc(Cl)cc3)N2C(=O)CN1C1CCN(Cc2c(Cl)cccc2Cl)CC1 on MDA-MB-435 melanoma, measured growth was 77

For CC1(C)CC[C@]2(C(=O)N3CCCN(CC#N)CC3)CC[C@]3(C)C(=CC[C@@H]4[C@@]5(C)CC[C@H](O)C(C)(C)[C@@H]5CC[C@]43C)[C@H]2C1 on MDA-MB-435 melanoma, measured growth was 59.8

* * *

test system: NCI-H322M lung; assay: NCI-60 one-dose screen, 48 h (100 = growth as untreated, 0 = no growth, -100 = all killed); details: 10 µM unless noted
About 83,000 compounds went through this panel and 20% of them were active in at least one assay; those are over-represented in the sample as a whole. Calls of active or inactive are those of the source. Rule for the calls: active = growth percent below 10; inactive = the rest.
Please go through the items and note down their growth.

Summary for this compound, Cc1ccc(-c2csc(N/N=C/c3nc4ccccc4n3C3CC3)n2)cc1 : growth is 91.5% (inactive)

Summary for this compound, COc1ccc(/C=C/C(=O)c2nnn(-c3ccc(Br)cc3)c2C)cc1OC : growth is 95.3% (inactive)

Summary for this compound, CCCCCc1ccc(S(=O)(=O)N(C(C)=O)c2cccc(-c3csc(N(CCN4CCN(C)CC4)C(C)=O)n3)c2)cc1 : growth is 61.1% (inactive)

Summary for this compound, COc1ccc(S(=O)(=O)n2cc(C=O)c3ccccc32)c(OC)c1 : growth is 102% (inactive)

Summary for this compound, C#C[C@]1(O)CC[C@H]2[C@@H]3CC=C4c5sc(-c6cccc(F)c6)nc5CC[C@]4(C)[C@H]3CC[C@@]21C : growth is 73.8% (inactive)

Summary for this compound, COc1ccc(CN2C(=O)/C(=C/c3nc(CO)cs3)SC2=S)cc1 : growth is 97.5% (inactive)

Summary for this compound, CN1C(=O)/C(=C/C=C/c2ccco2)SC1=S : growth is 88.8% (inactive)

Summary for this compound, Cn1ccnc1C(=O)/C=C/c1ccc(C(=O)Nc2ccc(NC(=O)CCNC(=O)c3csc(Br)n3)cc2)cc1 : growth is 66.2% (inactive)

Summary for this compound, Cn1cc2c(c1)-c1c(sc3nc(-c4ccc(NC(=O)Nc5cc(C(C)(C)C)on5)cc4)cn13)CC2 : growth is 75.6% (inactive)

* * *

test system: SK-MEL-5 melanoma; assay: NCI-60 one-dose screen, 48 h (100 = growth as untreated, 0 = no growth, -100 = all killed); conditions: 10 µM unless noted
This is part of a sample that, as a whole, favours compounds with a hit. Of some 83,000 tested, about 20% had one in any assay.
Think of 20% as a floor: if growth stands on it or above, it is rule met; beneath it, rule not met.

Exercise: Is reported growth greater than or equal to 20% here: O=C1CC2(CCOCC2)Oc2ncccc21
Solution: rule met

Exercise: Is reported growth greater than or equal to 20% here: COc1cc(C(=O)c2cc(C(C)=O)c3c4ccccc4ccn23)cc(OC)c1OC
Solution: rule met

Exercise: Is reported growth greater than or equal to 20% here: COc1cc(/C=C/C(=O)c2ccc(N3CCN(C)CC3)cc2)ccc1F
Solution: rule met

Exercise: Is reported growth greater than or equal to 20% here: CC1(COc2ccc3ncc(C#Cc4cncc(C(=O)Nc5cc(C(C)(C)C)on5)c4)n3n2)COC1
Solution: rule not met

Exercise: Is reported growth greater than or equal to 20% here: Cc1nn(-c2ccccc2)c2nc(CCl)[nH]c(=O)c12
Solution: rule met

Exercise: Is reported growth greater than or equal to 20% here: O=C(Cn1cc(CN2C(=O)c3ccc([N+](=O)[O-])cc3C2=O)nn1)Nc1ccccc1Br
Solution: rule met

Exercise: Is reported growth greater than or equal to 20% here: CCOC(=O)c1c(NCC(=O)Nc2cccc(Cl)c2)sc2c1CCCC2
Solution: rule met

Exercise: Is reported growth greater than or equal to 20% here: C#C[C@]1(O)CC[C@H]2[C@@H]3CC=C4c5sc(-c6ccccn6)nc5CC[C@]4(C)[C@H]3CC[C@@]21C
Solution: rule met

Exercise: Is reported growth greater than or equal to 20% here: CCc1ccc(NC(=O)N[C@@H](Cc2cccc(F)c2)C(=O)N[C@@H]2C(=O)N3CCC[C@H]3C(=O)N3CCCC[C@H]3C(=O)N[C@@H](CO)C(=O)N3C[C@H](C)C[C@H]3C(=O)O[C@H]2C)c(F)c1
Solution: rule not met

Exercise: Is reported growth greater than or equal to 20% here: Cn1ccnc1C(=O)/C=C/c1ccc(C(=O)Nc2ccc(NC(=O)CCNC(=O)c3csc(Br)n3)cc2)cc1
Solution: rule met

Exercise: Is reported growth greater than or equal to 20% here: CCCCCCNC(=O)Oc1ccc(/C(=C(/C)c2ccc(Cl)cc2)c2ccc(OCCN3CCCC3)cc2)cc1
Solution: rule not met

Exercise: Is reported growth greater than or equal to 20% here: CCC(CC)N1C(=O)/C(=c2\sc3n(c2=O)C2C(NN=3)N(CC)C(=O)N2CC)c2ccccc21 (stereo not drawn)
Solution: rule not met

Exercise: Is reported growth greater than or equal to 20% here: Cc1ccc(S(=O)(=O)N/N=C/c2cn(-c3ccc(F)cc3)nc2-c2ccc(S(C)(=O)=O)cc2)cc1
Solution: rule met

Exercise: Is reported growth greater than or equal to 20% here: CC(C)=CCc1c2c(c(O)c3c1O[C@]14C(=C[C@@H]5C[C@H]1C(C)(C)O[C@@]4(C/C=C(/C)C(=O)O)C5=O)C3=O)CC(O)C(C)(C)O2 (stereo partly drawn)
Solution: rule not met

Exercise: Is reported growth greater than or equal to 20% here: COc1ccc([C@H]2[C@H](O)C(=O)N2c2cc(OC)c(OC)c(OC)c2)cc1O
Solution: rule not met

Exercise: Is reported growth greater than or equal to 20% here: Oc1ccc(CSc2nnc(-c3ccccc3)o2)c2cccnc12
Solution: rule not met

Exercise: Is reported growth greater than or equal to 20% here: O=C1Nc2ccc(Cl)cc2/C1=C/c1ccc(OCc2ccc(F)cc2)cc1
Solution: rule met

Exercise: Is reported growth greater than or equal to 20% here: N/C(=N\OC(=O)CSc1nc2ccccc2s1)c1ccc(Cl)cc1
Solution: rule met
